The origin of these recorded values is ChEMBL document CHEMBL3988442.

Tested on: Trypanosoma cruzi
Assay: Trypanosoma cruzi phosphomannomutase and mannose-1-phosphate guanylyltransferase assay
Assay type: functional
Design: scale not given: direction of the effect not stated beside the values
Details: 10 µM
The compounds listed here are annotated with their Percent Effect.

# annotated cases, reported Percent Effect shown
compound | measurement_name | assay_value
COc1ccc(CNC(=O)NC2CCN(CC(F)F)CC2)cc1C | Percent Effect | 3.23%
COc1ccc(CN(C)CC2(O)CCN(C(=O)c3cccn3C)C2)cc1 (centres undefined) | Percent Effect | -1.78%
O=c1oc(-c2cccs2)nn1CC(O)c1ccccc1 (centres undefined) | Percent Effect | 0.292%

get_value(item= CCN1CC2(CC1=O)CN(C(=O)c1ccco1)CCN(C(=O)N(C)C)C2 (centres undefined) , readout=Percent Effect) returns -2.18%

get_value(item= Cn1cccc1C(=O)N1CCN(CC2CC2)c2ncccc2C1 , readout=Percent Effect) returns 2.7%
